Test system: OVCAR-3
Assay: Growth inhibition of human OVCAR3 cells assessed as cell growth at 10^-6 M by sulforhodamine B assay
Type: functional
Settings: read-out: Activity
Measured growth at 1 µM values are reported for all entries that follow.

structure string	units text	growth at 1 µM
C/C=C(/C)C(=O)O[C@@H]1CC(C)(C)C[C@H]2C3=CC[C@@H]4[C@@]5(C)CCC(=O)C(C)(C)[C@@H]5CC[C@@]4(C)[C@]3(C)CC[C@@]12C(=O)O	%	105
CC(C)=CC(=O)O[C@@H]1CC(C)(C)C[C@H]2C3=CC[C@@H]4[C@@]5(C)CCC(=O)C(C)(C)[C@@H]5CC[C@@]4(C)[C@]3(C)CC[C@@]12C(=O)O	%	84
CC1(C)C[C@@H](O)[C@]2(C(=O)O)CC[C@]3(C)C(=CC[C@@H]4[C@@]5(C)C/C(=C\C=C\c6ccccc6)C(=O)C(C)(C)[C@@H]5CC[C@]43C)[C@@H]2C1	%	92
CC(C)=CC(=O)O[C@@H]1CC(C)(C)C[C@H]2C3=CC[C@@H]4[C@@]5(C)CC[C@H](O)C(C)(C)[C@@H]5CC[C@@]4(C)[C@]3(C)CC[C@@]12C(=O)O	%	86
C/C=C(/C)C(=O)O[C@@H]1CC(C)(C)C[C@H]2C3=CC[C@@H]4[C@@]5(C)CC[C@H](O)C(C)(C)[C@@H]5CC[C@@]4(C)[C@]3(C)CC[C@@]12C(=O)O	%	104

====

# Lookup of reported growth at 1 µM keyed by entry
System: BT-549
Assay: Growth inhibition of human BT549 cells assessed as cell growth at 10^-6 M by sulforhodamine B assay
Type: functional
Settings: read-out: Activity

compound	study target	units text	growth at 1 µM
CC1(C)C[C@@H](O)[C@]2(C(=O)O)CC[C@]3(C)C(=CC[C@@H]4[C@@]5(C)C/C(=C\C=C\c6ccccc6)C(=O)C(C)(C)[C@@H]5CC[C@]43C)[C@@H]2C1	BT-549	%	100
CC(C)=CC(=O)O[C@@H]1CC(C)(C)C[C@H]2C3=CC[C@@H]4[C@@]5(C)CCC(=O)C(C)(C)[C@@H]5CC[C@@]4(C)[C@]3(C)CC[C@@]12C(=O)O	BT-549	%	90
C/C=C(/C)C(=O)O[C@@H]1CC(C)(C)C[C@H]2C3=CC[C@@H]4[C@@]5(C)CCC(=O)C(C)(C)[C@@H]5CC[C@@]4(C)[C@]3(C)CC[C@@]12C(=O)O [LANTADENE A]	BT-549	%	90
CC(C)=CC(=O)O[C@@H]1CC(C)(C)C[C@H]2C3=CC[C@@H]4[C@@]5(C)CC[C@H](O)C(C)(C)[C@@H]5CC[C@@]4(C)[C@]3(C)CC[C@@]12C(=O)O [Reduced Lantadene B]	BT-549	%	93
C/C=C(/C)C(=O)O[C@@H]1CC(C)(C)C[C@H]2C3=CC[C@@H]4[C@@]5(C)CC[C@H](O)C(C)(C)[C@@H]5CC[C@@]4(C)[C@]3(C)CC[C@@]12C(=O)O [Reduced Lantadene A]	BT-549	%	95

====

Overview of reported GI50 across a group of molecules:
Test system: CAKI-1
Assay: Growth inhibition of human CAKI-1 cells by sulforhodamine B assay
Assay type: functional
Conditions: read-out: pGI50 (converted)
measurement name: GI50 (µM)

structure string	study target	endpoint result
C/C=C(/C)C(=O)O[C@@H]1CC(C)(C)C[C@H]2C3=CC[C@@H]4[C@@]5(C)CC[C@H](O)C(C)(C)[C@@H]5CC[C@@]4(C)[C@]3(C)CC[C@@]12C(=O)O	CAKI-1	2.45
CC(C)=CC(=O)O[C@@H]1CC(C)(C)C[C@H]2C3=CC[C@@H]4[C@@]5(C)CCC(=O)C(C)(C)[C@@H]5CC[C@@]4(C)[C@]3(C)CC[C@@]12C(=O)O	CAKI-1	3.8
C/C=C(/C)C(=O)O[C@@H]1CC(C)(C)C[C@H]2C3=CC[C@@H]4[C@@]5(C)CCC(=O)C(C)(C)[C@@H]5CC[C@@]4(C)[C@]3(C)CC[C@@]12C(=O)O	CAKI-1	3.89
CC1(C)C[C@@H](O)[C@]2(C(=O)O)CC[C@]3(C)C(=CC[C@@H]4[C@@]5(C)C/C(=C\C=C\c6ccccc6)C(=O)C(C)(C)[C@@H]5CC[C@]43C)[C@@H]2C1	CAKI-1	3.55
CC(C)=CC(=O)O[C@@H]1CC(C)(C)C[C@H]2C3=CC[C@@H]4[C@@]5(C)CC[C@H](O)C(C)(C)[C@@H]5CC[C@@]4(C)[C@]3(C)CC[C@@]12C(=O)O	CAKI-1	3.39
